Test system: 843782-103-R-J1-PDC complex spheroid viability
procedure-summary: Anticancer human tumor 843782-103-R-J1-PDC patient-derived lung adenocarcinoma cell line growth inhibition [RAS]
experimental-parameters: second compound 0.0949 µM; first compound 0.000949 µM; stronger effect = lower value
Exercise: for every item that follows, state its recorded viability, T/C.
One number for each entry, in %.

In the examples that follow, each entry is paired with its recorded viability, T/C.
{"columns": ["molecule", "viability, T/C (%)"],
 "data": [
  ["CC1(C)CCC(Nc2ncc(C(F)(F)F)c(-c3c[nH]c4c(P(C)(C)=O)c(C#N)ccc34)n2)CN1 (centres undefined) + CCn1c(-c2cccnc2C(C)OC)c2c3cc(ccc31)N1CCOC(CC(NC(=O)C(C(C)C)N(C)C(=O)C3(F)CCN(C(=O)C#CC(C)(C)N(C)C)CC3)C(=O)N3CCCC(N3)C(=O)OCC(C)(C)C2)C1", 69.3],
  ["CCc1c2c(nc3ccc(O)cc13)-c1cc3c(c(=O)n1C2)COC(=O)[C@]3(O)CC + CCn1c(-c2cccnc2C(C)OC)c2c3cc(ccc31)N1CCOC(CC(NC(=O)C(C(C)C)N(C)C(=O)C3(F)CCN(C(=O)C#CC(C)(C)N(C)C)CC3)C(=O)N3CCCC(N3)C(=O)OCC(C)(C)C2)C1", 68.9],
  ["CC1(C)CCC(Nc2ncc(C(F)(F)F)c(-c3c[nH]c4c(P(C)(C)=O)c(C#N)ccc34)n2)CN1 (centres undefined) + CCn1c(-c2cc(N3CCN(C)CC3)cnc2C(C)OC)c2c3cc(ccc31)-c1csc(n1)CC(NC(=O)C1CC1C)C(=O)N1CCCC(N1)C(=O)OCC(C)(C)C2", 18.7]
]}

API: the following record is the query input.
Request: Return value of viability, T/C for input CCc1c2c(nc3ccc(O)cc13)-c1cc3c(c(=O)n1C2)COC(=O)[C@]3(O)CC + CCn1c(-c2cc(N3CCN(C)CC3)cnc2C(C)OC)c2c3cc(ccc31)-c1csc(n1)CC(NC(=O)C1CC1C)C(=O)N1CCCC(N1)C(=O)OCC(C)(C)C2 , no commentary.
Response: 14.2

* * *

System: 843782-103-R-J1-PDC complex spheroid viability
procedure-summary: Anticancer human tumor 843782-103-R-J1-PDC cell line growth inhibition [RAS];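 note: viability read after seven days of compound exposure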
experimental-parameters: second compound 0.316 µM; first compound 0.1 µM; stronger effect = lower value
I'd be grateful if you could share measured viability, T/C for these entries.
Numbers only, in %.

Please review the entries below; each comes with its answer.
{"columns": ["compound", "viability, T/C [%]"],
 "data": [
  ["CCN1CCN(Cc2ccc(Nc3ncc(F)c(-c4cc(F)c5nc(C)n(C(C)C)c5c4)n3)nc2)CC1 + C=CC(=O)N1CCN(c2nc(OCC3CCCN3C)nc3c(F)c(-c4nc(N)cc(C)c4C(F)(F)F)c(Cl)cc23)C(C)C1", 71.9],
  ["C[C@@H](NC(=O)c1ncnc(N)c1Cl)c1ncc(C(=O)Nc2cc(C(F)(F)F)c(Cl)cn2)s1 + C#Cc1c(F)ccc2cc(O)cc(-c3ncc4c(N5CC6CCC(C5)N6)nc(OCC56CCCN5CC(F)C6)nc4c3F)c12", 104],
  ["CC(=O)OC12COC1CC(O)C1(C)C(=O)C(O)C3=C(C)C(OC(=O)C(O)C(NC(=O)OC(C)(C)C)c4ccccc4)CC(O)(C(OC(=O)c4ccccc4)C21)C3(C)C (stereo not given) + C#Cc1c(F)ccc2cc(O)cc(-c3ncc4c(N5CC6CCC(C5)N6)nc(OCC56CCCN5CC(F)C6)nc4c3F)c12", 5.95],
  ["Nc1ccn(C2OC(CO)C(O)C2(F)F)c(=O)n1 (stereo not given) + C#Cc1c(F)ccc2cc(O)cc(-c3ncc4c(N5CC6CCC(C5)N6)nc(OCC56CCCN5CC(F)C6)nc4c3F)c12", 5.81]
]}

Here's the next entry for you.
Request: // fetch viability, T/C for C=CC(=O)N1CCN(c2nc(OCC3CCCN3C)nc3c(F)c(-c4nc(N)cc(C)c4C(F)(F)F)c(Cl)cc23)C(C)C1 (stereo not given) + C#Cc1c(F)ccc2cc(O)cc(-c3ncc4c(N5CC6CCC(C5)N6)nc(OCC56CCCN5CC(F)C6)nc4c3F)c12 ; system: 843782-103-R-J1-PDC complex spheroid viability
Response: 78.8

* * *

System: 843782-103-R-J1-PDC complex spheroid viability
procedure-summary: Anticancer human tumor 843782-103-R-J1-PDC cell line growth inhibition [RAS];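 note: viability read after seven days of compound exposure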
experimental-parameters: second compound 0.0949 µM; first compound 0.00949 µM; stronger effect = lower value
parameter-measured: viability, T/C

Illustrative cases are given below, each with its answer.
{"columns": ["molecule", "subject-of-test", "result"],
 "data": [
  ["CC1(C)CCC(Nc2ncc(C(F)(F)F)c(-c3c[nH]c4c(P(C)(C)=O)c(C#N)ccc34)n2)CN1 (centres undefined) + CCn1c(-c2cc(N3CCN(C)CC3)cnc2C(C)OC)c2c3cc(ccc31)-c1csc(n1)CC(NC(=O)C1CC1C)C(=O)N1CCCC(N1)C(=O)OCC(C)(C)C2", "843782-103-R-J1-PDC complex spheroid viability", "14.1%"],
  ["CCc1c2c(nc3ccc(O)cc13)-c1cc3c(c(=O)n1C2)COC(=O)[C@]3(O)CC + CCn1c(-c2cccnc2C(C)OC)c2c3cc(ccc31)N1CCOC(CC(NC(=O)C(C(C)C)N(C)C(=O)C3(F)CCN(C(=O)C#CC(C)(C)N(C)C)CC3)C(=O)N3CCCC(N3)C(=O)OCC(C)(C)C2)C1", "843782-103-R-J1-PDC complex spheroid viability", "3.32%"],
  ["CCc1c2c(nc3ccc(O)cc13)-c1cc3c(c(=O)n1C2)COC(=O)[C@]3(O)CC + CCn1c(-c2cc(N3CCN(C)CC3)cnc2C(C)OC)c2c3cc(ccc31)-c1csc(n1)CC(NC(=O)C1CC1C)C(=O)N1CCCC(N1)C(=O)OCC(C)(C)C2", "843782-103-R-J1-PDC complex spheroid viability", "5.71%"]
]}

// next entry
Request: Give viability, T/C for CC1(C)CCC(Nc2ncc(C(F)(F)F)c(-c3c[nH]c4c(P(C)(C)=O)c(C#N)ccc34)n2)CN1 (centres undefined) + CCn1c(-c2cccnc2C(C)OC)c2c3cc(ccc31)N1CCOC(CC(NC(=O)C(C(C)C)N(C)C(=O)C3(F)CCN(C(=O)C#CC(C)(C)N(C)C)CC3)C(=O)N3CCCC(N3)C(=O)OCC(C)(C)C2)C1
Response: 31.5%

* * *

Tested on: 843782-103-R-J1-PDC complex spheroid viability
procedure-summary: Anticancer human tumor 843782-103-R-J1-PDC cell line growth inhibition [RAS]; active means viability on the fitted dose curve at most 10% of control; inactive means the rest;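 note: viability read after seven days of compound exposure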
experimental-parameters: second compound 0.00949 µM; first compound 3.16 µM
Form entry, call: pick from active, inactive

Study these solved cases before continuing.
{"columns": ["compound", "label-class"],
 "data": [
  ["CC(=O)OC12COC1CC(O)C1(C)C(=O)C(O)C3=C(C)C(OC(=O)C(O)C(NC(=O)OC(C)(C)C)c4ccccc4)CC(O)(C(OC(=O)c4ccccc4)C21)C3(C)C (stereo not drawn) + CCn1c(-c2cccnc2C(C)OC)c2c3cc(ccc31)N1CCOC(CC(NC(=O)C(C(C)C)N(C)C(=O)C3(F)CCN(C(=O)C#CC(C)(C)N(C)C)CC3)C(=O)N3CCCC(N3)C(=O)OCC(C)(C)C2)C1", "active"],
  ["CC(C)NCC(C(=O)N1CCN(c2ncnc3c2C(C)CC3O)CC1)c1ccc(Cl)cc1 (stereo not drawn) + CCn1c(-c2cccnc2C(C)OC)c2c3cc(ccc31)N1CCOC(CC(NC(=O)C(C(C)C)N(C)C(=O)C3(F)CCN(C(=O)C#CC(C)(C)N(C)C)CC3)C(=O)N3CCCC(N3)C(=O)OCC(C)(C)C2)C1", "inactive"]
]}

Next up:
Request: Status in this test for CC(Nc1ccc2c(c1)OCCn1cc(N3C(=O)OCC3C(F)F)nc1-2)C(N)=O (stereo not drawn) + CCn1c(-c2cccnc2C(C)OC)c2c3cc(ccc31)N1CCOC(CC(NC(=O)C(C(C)C)N(C)C(=O)C3(F)CCN(C(=O)C#CC(C)(C)N(C)C)CC3)C(=O)N3CCCC(N3)C(=O)OCC(C)(C)C2)C1 ?
Response: inactive

* * *

System: 843782-103-R-J1-PDC complex spheroid viability
procedure-summary: Anticancer human tumor 843782-103-R-J1-PDC cell line growth inhibition [RAS];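 note: viability read after seven days of compound exposure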
experimental-parameters: second compound 0.316 µM; first compound 1 µM; stronger effect = lower value
parameter-measured: viability, T/C (%)
Answers are plain numbers, in %.

// solved cases for viability, T/C follow
{"columns": ["molecule", "parameter-measured", "result-number"],
 "data": [
  ["O=C(c1ccc(F)c(F)c1Nc1ccc(I)cc1F)N1CC(O)([C@@H]2CCCCN2)C1 + C#Cc1c(F)ccc2cc(O)cc(-c3ncc4c(N5CC6CCC(C5)N6)nc(OCC56CCCN5CC(F)C6)nc4c3F)c12", "viability, T/C", 22.3],
  ["O=C(c1ccc(F)c(F)c1Nc1ccc(I)cc1F)N1CC(O)([C@@H]2CCCCN2)C1 + C=CC(=O)N1CCN(c2nc(OCC3CCCN3C)nc3c(F)c(-c4nc(N)cc(C)c4C(F)(F)F)c(Cl)cc23)C(C)C1", "viability, T/C", 25.9],
  ["NC1c2ccccc2OC12CCN(c1cnc3c(N4CCCc5ncccc54)n[nH]c3n1)CC2 (stereo unspecified) + C#Cc1c(F)ccc2cc(O)cc(-c3ncc4c(N5CC6CCC(C5)N6)nc(OCC56CCCN5CC(F)C6)nc4c3F)c12", "viability, T/C", 37.2],
  ["C=CC(=O)Nc1cc(Nc2nccc(-c3cn(C)c4ccccc34)n2)c(OC)cc1N(C)CCN(C)C + C=CC(=O)N1CCN(c2nc(OCC3CCCN3C)nc3c(F)c(-c4nc(N)cc(C)c4C(F)(F)F)c(Cl)cc23)C(C)C1", "viability, T/C", 35.5],
  ["CC(C)NCC(C(=O)N1CCN(c2ncnc3c2C(C)CC3O)CC1)c1ccc(Cl)cc1 (stereo unspecified) + C=CC(=O)N1CCN(c2nc(OCC3CCCN3C)nc3c(F)c(-c4nc(N)cc(C)c4C(F)(F)F)c(Cl)cc23)C(C)C1", "viability, T/C", 40.1]
]}

# next molecule below
Request: Supply viability, T/C value. Item: CCN1CCN(Cc2ccc(Nc3ncc(F)c(-c4cc(F)c5nc(C)n(C(C)C)c5c4)n3)nc2)CC1 + C#Cc1c(F)ccc2cc(O)cc(-c3ncc4c(N5CC6CCC(C5)N6)nc(OCC56CCCN5CC(F)C6)nc4c3F)c12
Response: 65
